# System: MCC26 cells (VN-MCC)
# protocolSummary: qHTS cell viability (CellTiter-Glo, 72 h; primary and follow-up small molecule screen)
# Assay type: cell-based, human
Lab note: compare Area under the dose-response curve (AUC) MCC26 Replicate 1 against 400. Equal or greater, write satisfied. Smaller, write not satisfied.

- molecule: "CCCCCCCCC(=O)NCc1ccc(O)c(OC)c1 [Nonivamide]"
  studySystem: "MCC26 cells (VN-MCC)"
  cat: "satisfied"
- molecule: "O=C1Nc2cc(Br)ccc2/C1=C1/Nc2ccccc2/C1=N\\O [BIO]"
  studySystem: "MCC26 cells (VN-MCC)"
  cat: "satisfied"
- molecule: "CN(C)c1ccc(C(=C2C=CC(=[N+](C)C)C=C2)c2ccc(N(C)C)cc2)cc1.[Cl-] [Methylrosaniline chloride]"
  studySystem: "MCC26 cells (VN-MCC)"
  cat: "not satisfied"
- molecule: "C[n+]1cc2c3c(ccc2c2ccc4cc5c(cc4c21)OCO5)OCO3 [Sanguinarine]"
  studySystem: "MCC26 cells (VN-MCC)"
  cat: "not satisfied"
- molecule: "O=C(/C=C/c1ccc(/C=C/C(=O)Nc2ccc(C3=NCCN3)cc2)cc1)Nc1ccc(C2=NCCN2)cc1 [GW 4869]"
  studySystem: "MCC26 cells (VN-MCC)"
  cat: "satisfied"
- molecule: "CC(=O)C1=C(O)[C@@H]2[C@H]3c4c[nH]c5cccc(c45)C[C@H]3C(C)(C)N2C1=O [Cyclopiazonic acid]"
  studySystem: "MCC26 cells (VN-MCC)"
  cat: "satisfied"
- molecule: "COc1cccc2c1C(=O)c1c(O)c3c(c(O)c1C2=O)C[C@@](O)(C(C)=O)C[C@@H]3O[C@H]1C[C@H](N)[C@H](O)[C@H](C)O1 [Daunorubicin]"
  studySystem: "MCC26 cells (VN-MCC)"
  cat: "not satisfied"

----------
# Test system: MCC26 cells (VN-MCC)
# protocolSummary: qHTS cell viability (CellTiter-Glo, 72 h; primary and follow-up small molecule screen)
# Assay type: cell-based, human
# appliedConditions: NPC library; qHTS dose-response AUC, MCC26
Structures can show the parent of a compound that is named as a salt.

- compound: "Oc1ccc(O)cc1 [Hydroquinone]"
  MCC26_AUC: 512.585
- compound: "CCCCOc1ccc(C(=O)CCN2CCCCC2)cc1 [Dyclonine hydrochloride]"
  MCC26_AUC: 466.065
- compound: "O=C(CCCCCCCCC#CI)Oc1ccccc1 [Phenyl 11-iodo-10-undecynoate]"
  MCC26_AUC: 443.917
- compound: "CCOc1ccc2nc(S(N)(=O)=O)sc2c1 [Ethoxzolamide]"
  MCC26_AUC: 444.564
- compound: "CN(CC1(C)CCCO1)S(=O)(=O)c1ccc(Cl)c(S(N)(=O)=O)c1 (stereo not shown) [Mefruside]"
  MCC26_AUC: 494.694
- compound: "CC[N+](CC)(CC)CCOC(=O)C(C1CCCC1)C1CCCC1 [Diponium bromide]"
  MCC26_AUC: 499.996
- compound: "Clc1ccc(C(Cn2ccnc2)OCc2ccsc2Cl)c(Cl)c1 (stereo not shown)"
  MCC26_AUC: 501.8
- compound: "O=C(CCCN1CCC(O)(c2ccc(Br)cc2)CC1)c1ccc(F)cc1"
  MCC26_AUC: 508.837
- compound: "CCCCCCC[N+](CC)(CC)CCCCc1ccc(Cl)cc1.Cc1ccc(S(=O)(=O)[O-])cc1 [Clofilium tosylate]"
  MCC26_AUC: 466.849
- compound: "CCCC(C(=O)OCCN(CC)CC)(c1ccccc1)c1ccccc1 [Proadifen hydrochloride]"
  MCC26_AUC: 413.531
- compound: "CC[N+]1(CC)CCC(=C(c2ccccc2)c2ccccc2)C1C (stereo not shown) [Prifinium bromide]"
  MCC26_AUC: 492.512
- compound: "Cn1c(=O)c2c(ncn2CCO)n(C)c1=O"
  MCC26_AUC: 435.802
- compound: "CCCCCCCCCCCCCCCC[N+](C)(C)CC [Ethylhexadecyldimethylammonium bromide]"
  MCC26_AUC: 497.964
- compound: "[H]/N=C(/NCCCCC)N/N=C/c1c[nH]c2ccc(OC)cc12"
  MCC26_AUC: 428.067
- compound: "CC1=C(C)C(=O)C(CCCCC#CCCCC#CCO)=C(C)C1=O"
  MCC26_AUC: 429.759
- compound: "O=C(CCN1CCC(c2ccccc2)C1)c1ccc2c(c1)OCCO2 (stereo not shown)"
  MCC26_AUC: 531.522
